Target: Prostaglandin G/H synthase 2 (Homo sapiens)
Sequence (P35354 whole entry): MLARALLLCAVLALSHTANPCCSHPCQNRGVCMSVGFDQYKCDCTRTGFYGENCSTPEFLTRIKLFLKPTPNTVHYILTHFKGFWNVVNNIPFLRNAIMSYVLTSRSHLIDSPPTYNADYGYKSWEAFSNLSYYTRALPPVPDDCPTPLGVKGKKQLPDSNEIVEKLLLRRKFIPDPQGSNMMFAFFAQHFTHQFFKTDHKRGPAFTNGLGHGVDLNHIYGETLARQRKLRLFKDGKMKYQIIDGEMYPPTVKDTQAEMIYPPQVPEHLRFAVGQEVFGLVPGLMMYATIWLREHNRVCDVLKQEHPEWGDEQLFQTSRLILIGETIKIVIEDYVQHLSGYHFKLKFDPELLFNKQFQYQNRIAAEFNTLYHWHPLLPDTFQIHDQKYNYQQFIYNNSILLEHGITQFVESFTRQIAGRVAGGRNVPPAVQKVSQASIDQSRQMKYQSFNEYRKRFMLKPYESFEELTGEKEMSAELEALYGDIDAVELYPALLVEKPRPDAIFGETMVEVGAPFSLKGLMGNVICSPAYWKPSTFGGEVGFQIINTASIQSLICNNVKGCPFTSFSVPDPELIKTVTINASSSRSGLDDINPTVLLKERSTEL
Assay: Inhibition of human recombinant COX2
property-name: IC50 (µM)
Write it as a number; the unit µM goes unstated.

Request: // query IC50 value for entry O=C1N/C(=N\c2nccs2)S/C1=C/c1cccc(Cl)c1
Response: 262

---

Target: Prostaglandin G/H synthase 2 (Homo sapiens)
Assay: Inhibition of human recombinant COX2 at 200 uM
Please provide measured inhibition for the entries that follow.
Reply numerically in %, unit not repeated.

Request: Please give the measured inhibition for this compound: O=C1N/C(=N\c2nccs2)S/C1=C/c1cccc(Cl)c1
Response: 30.4

Request: Quick one: inhibition for O=C1N/C(=N\c2nccs2)S/C1=C/c1ccc([N+](=O)[O-])cc1 ?
Response: 4.5

Request: Fill in: inhibition of COc1ccc(/C=C2/S/C(=N/c3nccs3)NC2=O)cc1 is ___
Response: 2.5

Request: Dear colleague, I am looking for the recorded inhibition of the following compound: O=C1CSC(Nc2nccs2)=N1
Response: 0
